MEASUREMENT TARGET: Glu-plg (Homo sapiens, UniProt P00747)
Construct: 0.1 mM VLK-pNA, 50 nM Glu-plg and 50 U/ml u-PA
Sequence (P00747 20-810 limits assumed): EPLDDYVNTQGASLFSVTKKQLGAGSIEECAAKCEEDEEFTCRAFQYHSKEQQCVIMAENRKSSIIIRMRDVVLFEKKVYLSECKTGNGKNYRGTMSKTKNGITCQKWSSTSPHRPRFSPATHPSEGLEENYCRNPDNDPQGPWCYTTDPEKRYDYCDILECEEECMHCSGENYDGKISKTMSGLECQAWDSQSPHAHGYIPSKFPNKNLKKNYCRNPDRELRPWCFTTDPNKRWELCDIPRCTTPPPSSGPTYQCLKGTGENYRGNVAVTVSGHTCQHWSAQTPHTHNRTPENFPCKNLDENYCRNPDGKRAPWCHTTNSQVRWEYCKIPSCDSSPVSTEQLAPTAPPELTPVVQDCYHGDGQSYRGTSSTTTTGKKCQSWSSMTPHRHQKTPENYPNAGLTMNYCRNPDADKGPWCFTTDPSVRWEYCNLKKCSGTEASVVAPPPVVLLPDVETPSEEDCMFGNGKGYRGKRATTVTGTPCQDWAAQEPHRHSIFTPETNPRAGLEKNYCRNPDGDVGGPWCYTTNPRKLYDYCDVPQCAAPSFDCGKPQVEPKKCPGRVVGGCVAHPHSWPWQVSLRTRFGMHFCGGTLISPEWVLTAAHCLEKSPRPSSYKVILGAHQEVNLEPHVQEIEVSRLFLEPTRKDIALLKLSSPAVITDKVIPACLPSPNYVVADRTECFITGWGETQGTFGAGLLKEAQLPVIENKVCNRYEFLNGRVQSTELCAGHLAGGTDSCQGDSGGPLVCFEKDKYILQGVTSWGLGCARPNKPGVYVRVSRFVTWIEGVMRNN
PROCEDURE DETAILS: Plasminogen (plg) activation enhancing activity by urokinase catalysis, VLK-pNA chromogenic assay (Example 30, Table 24)
Type: biochemical
TEST SETTINGS: concentration giving 10-fold enhancement of plasminogen activation vs control without SMTP compound (=1); 0.1 mM VLK-pNA, 50 nM Glu-plg, 50 U/ml u-PA, 37° C.
ASSAY READOUT: 10-Fold enhancing activity: Concentration by weight (μg/ml)
Express your answer in μg/ml, writing the number without its unit.

Some solved entries appear below for comparison.
INSERT INTO results (compound, endpoint_value) VALUES
  ('CC(C)=CCC/C(C)=C/CC[C@]1(C)Oc2c(c(O)cc3c2CN([C@H](C(=O)O)c2ccccc2)C3=O)C[C@@H]1O [Compound I-20]', 46),
  ('CC(C)=CCC/C(C)=C/CC[C@]1(C)Oc2c(c(O)cc3c2CN(CCC[C@@H](C(=O)O)N2Cc4c(cc(O)c5c4O[C@@](C)(CC/C=C(\C)CCC=C(C)C)[C@@H](O)C5)C2=O)C3=O)C[C@@H]1O [Orniplabin, reference compound]', 56),
  ('CC(C)=CCC/C(C)=C/CC[C@]1(C)Oc2c(c(O)cc3c2CN(c2ccc(C(=O)O)c(O)c2)C3=O)C[C@@H]1O [Compound I-5]', 52),
  ('CC(C)=CCC/C(C)=C/CC[C@]1(C)Oc2c(c(O)cc3c2CN(c2cccc(C(=O)O)c2O)C3=O)C[C@@H]1O [Compound I-8]', 37),
  ('CC(C)=CCC/C(C)=C/CC[C@]1(C)Oc2c(c(O)cc3c2CN(c2ccc(O)cc2C(=O)O)C3=O)C[C@@H]1O [Compound I-11]', 66);

Next item in the queue.
Fill blank: measured 10-Fold enhancing activity: Concentration by weight of the compound CC(C)=CCC/C(C)=C/CC[C@]1(C)Oc2c(c(O)cc3c2CN([C@@H](C(=O)O)c2ccccc2)C3=O)C[C@@H]1O [Compound I-21] is ____.
54
